Ref: the supplement of paper PMC6897291

System: U-2932
Assay: growth inhibition by drug plus 177Lu-lilotomab satetraxetan (1 - RLU/untreated control) (fraction); higher = stronger inhibition
Conditions: 10 nM; time (day): 5; 177Lu-lilotomab satetraxetan 1 ug/ml
Measured quantity: growth inhibition by drug plus 177Lu-lilotomab satetraxetan
The answer should be a number; do not append a unit.

Supply reported growth inhibition by drug plus 177Lu-lilotomab satetraxetan belonging to this compound: CN(C)CCCN=c1c2ccccc2n(C)c2[nH]c(=O)n(C)c(=O)c12
0.138

Supply reported growth inhibition by drug plus 177Lu-lilotomab satetraxetan belonging to this compound: COc1cc(Nc2ncc3c(n2)-c2ccc(Cl)cc2C(c2c(F)cccc2OC)=NC3)ccc1C(=O)O
0.0508

Supply reported growth inhibition by drug plus 177Lu-lilotomab satetraxetan belonging to this compound: CC1(CN2CCC(n3c(=O)[nH]c4ccccc43)CC2)OCc2ccccc2-n2cccc21 (configuration not stated)
0.0781

Supply reported growth inhibition by drug plus 177Lu-lilotomab satetraxetan belonging to this compound: CNC(=O)c1cc(Oc2ccc(NC(=O)Nc3ccc(Cl)c(C(F)(F)F)c3)cc2)ccn1
-0.00478
